Target: rBmLDH (Babesia microti)
Sequence (I7J7V6 entry or part of it): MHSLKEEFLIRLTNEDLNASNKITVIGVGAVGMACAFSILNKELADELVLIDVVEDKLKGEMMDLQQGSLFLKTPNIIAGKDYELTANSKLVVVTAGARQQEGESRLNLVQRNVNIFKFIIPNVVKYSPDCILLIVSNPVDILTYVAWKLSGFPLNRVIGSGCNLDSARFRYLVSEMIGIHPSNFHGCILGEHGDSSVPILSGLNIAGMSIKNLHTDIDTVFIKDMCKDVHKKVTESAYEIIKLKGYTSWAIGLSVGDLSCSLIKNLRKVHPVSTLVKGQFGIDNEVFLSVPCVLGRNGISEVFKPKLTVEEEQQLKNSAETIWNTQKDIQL
Experiment: Surface plasmon resonance binding kinetics (Biacore T200)
Settings: SPR, 1:1 binding model, rBmLDH immobilized on CM5; read-out: K D
pKd: −log10 of the molar value.

- Compound: "O=C(O)c1cc2cccc(O)c2cc1O [DHNA, 3,5-Dihydroxy 2-napthoic acid]"
  pKd: 4.42

---

Assay: Cytotoxicity test by MTT method
Assay type: cell-based, African green monkey
Conditions: African green monkey, Vero cells (ATCC-CCL-81), MTT, 72 h; read-out: CC50 in Vero cells
Procedure: Mycoplasma-free Vero cell line (ATCC-CCL-81, immortalized cells) was preserved in liquid nitrogen with the additive of DMSO in the State Key Laboratory of Agricultural Microbiology, Huazhong Agricultural University, China. […] The plate was gently mixed on a gyratory shaker for 10 min and the absorbances were measured at a wavelength of 570 nm using a microplate reader (BioTek, Vermont, USA). The background absorbances of the multi-well plate at 690 nm were subtracted from the 570 nm measurement. […]
Readout Type: CC50 at 72 h (µM)

- Structure: "O=C(O)c1cc2cc(Br)ccc2c(Br)c1O"
  Reading: 216
